# system_name: T1, biotinylated human VWF cysteine knot (CK) domain construct (human, biotin on the in vitro biotinylation tag (residue not stated); one N-glycan)
# T1 construct: Disulfide-linked homodimer; also called biotinylated human VWF CK domain; human VWF CK domain construct
# T1 chain: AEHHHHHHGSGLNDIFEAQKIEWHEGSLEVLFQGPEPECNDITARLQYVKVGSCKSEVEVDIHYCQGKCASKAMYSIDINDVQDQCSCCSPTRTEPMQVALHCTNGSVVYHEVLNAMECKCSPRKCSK
# protocol_summary: SPR, scFv captured on anti-SV5, pH 7.4
measured_parameter: binding result

1) 4035_Lib1_scFv (scFv, not shown: small tags and cut ends) scFv: QVQLVQSGAEVKKPGASVKVSCKVSGYAFPSYGIHWVRQAPGKGLEWMGGISAFTGDTIYAQKFQGRVTMTEDTSTDTAYMELSSLKSEDTAVYYCASGPTNVLTGLMESAEYFQHWGQGTLVTVSSSGGSTITSYNVYYTKLSSSGTDIQMTQSPSSVSASVGDRVTITCRASQGISRDLAWYQQKPGKAPKLLIYGASGRATGVPSRFSGSGSGTDFTLTISSLQPEDFANYYCQQSYITPTTFGGGTKVEIK : binds
2) 27_Lib4_scFv (scFv, not shown: small tags and cut ends) scFv: QVQLQESGPGLVKPSQTLSLTCTVSGASFGDHYWSWIRQPPGKGLEWIGYIDATGSIDYNPSLKSRVTMSVDTSKNQFSLKVNSVTAADTAVYYCARVASYYYYMDVWGKGTTVTVSSSGGSTITSYNVYYTKLSSSGTEIVMTQSPATLSLSPGERATLSCRASQSITGSYLAWYQQKPGQAPRLLIYGASDRAPGIPARFSGSGSGTDFTLTISSLEPEDFAVYYCQQYGSFPYTFGGGTKVEIK : binds
3) Lib4_P2_A11_scFv (scFv, not shown: small tags and cut ends, also called Lib4_P2_All) scFv: QVQLQESGPGLVKPSQTLSLTCTVSGVTFSSYGWSWIRQPPGKGLEWIGYVDTSGSTDYNPSLKSRVTMSVDTSKNQFSLKVNSVTAADTAVYYCARTTYYYDSSGFARGWFDPWGQGTLVTVSSSGGSTITSYNVYYTKLSSSGTEIVMTQSPATLSLSPGERATLSCRASRSISTNLAWYQRKPGQAPRLLIYDTSNRAPGIPARFSGSGSGTDFTLTISSLEPEDFAVYYCLQYDVSPYTFGGGTKVEIK : binds

Where these numbers come from: patent US20250154283A1
